Test system: RARg homodimer (NR concentration 270 nM)
test_details: PBM binding z-score (relative to random genomic background probes); higher = stronger binding; sequences stand for … in GC…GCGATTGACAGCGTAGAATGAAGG
Classify as follows. Reported PBM binding z-score greater than or equal to 2: Fulfilled. Reported PBM binding z-score below: Not fulfilled.

Answered cases to consult:
Confirm if PBM binding z-score reported for the sequence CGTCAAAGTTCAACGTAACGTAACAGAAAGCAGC is 2 or above.
Fulfilled

Dear colleague, could you confirm whether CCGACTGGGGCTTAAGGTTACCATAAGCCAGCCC has PBM binding z-score at or above 2?
Not fulfilled

Check this sequence for PBM binding z-score at or above 2: TTACCAAGGTGAAAGGGCGTTGATGCACGCCTTG
Not fulfilled

State whether the measured PBM binding z-score reaches 2, counting equality as reaching it, for ATCGAAAGGTCGTGAGGCGAGTATACAGAAAGGC
Fulfilled

Answer whether PBM binding z-score of TCTATTAGTTGATTAGGGCACCCGAAACAGCGGA is greater than or equal to 2.
Not fulfilled

Does the sequence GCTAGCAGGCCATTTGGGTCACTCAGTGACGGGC have recorded PBM binding z-score that is 2 or more?
Not fulfilled

Can GCTGCTAGGTCAGGTTGGTCCGCTAACGGGTACG be said to have PBM binding z-score at or above 2?
Fulfilled

Record TTACCAAGGTGAATGGTCGTTGATGCACGCCTTG ; criterion: PBM binding z-score no lower than 2. Met?
Not fulfilled

Does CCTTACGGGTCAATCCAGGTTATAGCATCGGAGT have a reported PBM binding z-score of at least 2?
Fulfilled

In plain terms: is recorded PBM binding z-score at least 2 for GCATATAGGTAATACAAGGTGAACGTCCGATTGT ?
Not fulfilled

***
Can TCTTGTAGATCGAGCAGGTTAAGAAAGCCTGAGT be said to have PBM binding z-score at or above 2?
Not fulfilled

hey, is PBM binding z-score for this one >= 2? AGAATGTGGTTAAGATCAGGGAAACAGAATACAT
Not fulfilled

Assess whether reported PBM binding z-score for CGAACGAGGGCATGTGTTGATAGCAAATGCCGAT sits at 2 or higher.
Not fulfilled

Where these numbers come from: the supplement of paper PMC6555819
